Recorded values, source PubChem BioAssay (NCATS).

Biological target: Tumor susceptibility gene 101 protein (Homo sapiens)
Test: qHTS Validation Assay for Iinhibitors of HIV-1 Budding by Blocking the Interaction of PTAP/TSG101 (AID 485342)
Conditions: TSG101-PTAP binding, fluorescence polarization, 4-point titration; series mostly up to 115 µM
Text: NIH Molecular Libraries Probe Production Network [MLPCN] NIH Chemical Genomics Center [NCGC] PI Name: Dr. Eric Freed, NCI Stages of the HIV-1 replication cycle, specifically virus assembly and release, provide underexploited targets for the development of novel antiviral inhibitors. […] A fluorescence anisotropy assay has been developed to quantitatively measure the PTAP-Tsg101 interaction which can be used to screen for inhibitors of this interaction. […]
The source made the active and inactive calls. Calls come from the whole dose curve.
attribute measured: outcome

Past entries and their recorded results:
>>> test_result("CC[C@@H](C)[C@H]1O[C@]2(CC[C@H]1C)C[C@@H]1C[C@@H](CC=C(C)[C@@H](O[C@H]3C[C@H](OC)[C@@H](O[C@H]4C[C@H](OC)[C@@H](O)[C@H](C)O4)[C@H](C)O3)[C@@H](C)C=CC=C3CO[C@@H]4[C@H](O)C(C)=C[C@@H](C(=O)O1)[C@]34O)O2")
"inactive"
>>> test_result("N#C/C(=C\\c1c[nH]c2ccccc12)C(=O)c1ccc(O)c(O)c1")
"inactive"
>>> test_result("C[N+](C)(C)CCOP(=O)(O)OP(=O)([O-])OC[C@H]1O[C@@H](n2ccc(N)nc2=O)[C@H](O)[C@@H]1O")
"inactive"
>>> test_result("NC[C@@H]1O[C@H](C23CC4CC(CC(C4)C2)C3)Cc2c1ccc(O)c2O")
"inactive"
>>> test_result("COc1cc2c(CCNC(C)=O)c[nH]c2cc1Cl")
"inactive"

// recorded outcome for CC(COc1ccc(/C=C/c2ccccc2)cc1)[N+](C)(C)C (stereo not drawn) : inactive

// recorded outcome for CCNC(=O)[C@H]1O[C@@H](n2cnc3c(N)nc(NCCc4ccc(CCC(=O)O)cc4)nc32)[C@H](O)[C@@H]1O : inactive

// recorded outcome for CC1CN(S(=O)(=O)c2cccc3cnccc23)CCN1 (stereo not drawn) : inactive
